For each record, write down the corresponding -Log C.
# Tested on: Trichoderma viride
# assayExplanation: The compound was evaluated for activity against Trichoderma viride
# Format: functional
# Set-up: unit not given here
Give bare numbers.

Known results for compounds:
[
  {
    "smilesRecord": "Oc1c(I)cc(F)c2cccnc12",
    "-Log C": 2.46
  },
  {
    "smilesRecord": "Oc1c(Cl)cc(F)c2cccnc12",
    "-Log C": 2.29
  },
  {
    "smilesRecord": "Oc1c(I)ccc2cccnc12",
    "-Log C": 2.43
  }
]

Then there is this compound:
The compound `O=[N+]([O-])c1cc(Br)c2cccnc2c1O` on Trichoderma viride: -Log C was 1.13
